- Assay Remarks: Clearance in rat at 2 mg/kg, iv or 5 mg/kg, po
- Type: ADME, organism-based
- Condition Label: in vivo
Known clearance of a selection of molecules

Molecular String	Unit Label	clearance
CC[C@H](C)[C@@H]1C(=O)N[C@H](C2Cc3ccccc3C2)C(=O)N1[C@@H](C(=O)N1CCOCC1)c1coc(C)n1	L/h/kg	1.14
Cc1nc([C@H](C(=O)N2CCC2)N2C(=O)[C@@H](C3Cc4ccccc4C3)NC(=O)[C@H]2CC(C)C)co1	L/h/kg	2.1
Cc1nc([C@H](C(=O)N2CCOCC2)N2C(=O)[C@@H](C3Cc4ccccc4C3)NC(=O)[C@H]2CC(C)C)co1	L/h/kg	1.38
CC[C@@H](C)[C@@H]1C(=O)N[C@H](C2Cc3ccccc3C2)C(=O)N1[C@@H](C(=O)N1CCOCC1)c1coc(C)n1	L/h/kg	0.84
